- Assayed System: Sodium channel protein type 10 subunit alpha (Homo sapiens)
- Sequence (Q9Y5Y9 whole entry): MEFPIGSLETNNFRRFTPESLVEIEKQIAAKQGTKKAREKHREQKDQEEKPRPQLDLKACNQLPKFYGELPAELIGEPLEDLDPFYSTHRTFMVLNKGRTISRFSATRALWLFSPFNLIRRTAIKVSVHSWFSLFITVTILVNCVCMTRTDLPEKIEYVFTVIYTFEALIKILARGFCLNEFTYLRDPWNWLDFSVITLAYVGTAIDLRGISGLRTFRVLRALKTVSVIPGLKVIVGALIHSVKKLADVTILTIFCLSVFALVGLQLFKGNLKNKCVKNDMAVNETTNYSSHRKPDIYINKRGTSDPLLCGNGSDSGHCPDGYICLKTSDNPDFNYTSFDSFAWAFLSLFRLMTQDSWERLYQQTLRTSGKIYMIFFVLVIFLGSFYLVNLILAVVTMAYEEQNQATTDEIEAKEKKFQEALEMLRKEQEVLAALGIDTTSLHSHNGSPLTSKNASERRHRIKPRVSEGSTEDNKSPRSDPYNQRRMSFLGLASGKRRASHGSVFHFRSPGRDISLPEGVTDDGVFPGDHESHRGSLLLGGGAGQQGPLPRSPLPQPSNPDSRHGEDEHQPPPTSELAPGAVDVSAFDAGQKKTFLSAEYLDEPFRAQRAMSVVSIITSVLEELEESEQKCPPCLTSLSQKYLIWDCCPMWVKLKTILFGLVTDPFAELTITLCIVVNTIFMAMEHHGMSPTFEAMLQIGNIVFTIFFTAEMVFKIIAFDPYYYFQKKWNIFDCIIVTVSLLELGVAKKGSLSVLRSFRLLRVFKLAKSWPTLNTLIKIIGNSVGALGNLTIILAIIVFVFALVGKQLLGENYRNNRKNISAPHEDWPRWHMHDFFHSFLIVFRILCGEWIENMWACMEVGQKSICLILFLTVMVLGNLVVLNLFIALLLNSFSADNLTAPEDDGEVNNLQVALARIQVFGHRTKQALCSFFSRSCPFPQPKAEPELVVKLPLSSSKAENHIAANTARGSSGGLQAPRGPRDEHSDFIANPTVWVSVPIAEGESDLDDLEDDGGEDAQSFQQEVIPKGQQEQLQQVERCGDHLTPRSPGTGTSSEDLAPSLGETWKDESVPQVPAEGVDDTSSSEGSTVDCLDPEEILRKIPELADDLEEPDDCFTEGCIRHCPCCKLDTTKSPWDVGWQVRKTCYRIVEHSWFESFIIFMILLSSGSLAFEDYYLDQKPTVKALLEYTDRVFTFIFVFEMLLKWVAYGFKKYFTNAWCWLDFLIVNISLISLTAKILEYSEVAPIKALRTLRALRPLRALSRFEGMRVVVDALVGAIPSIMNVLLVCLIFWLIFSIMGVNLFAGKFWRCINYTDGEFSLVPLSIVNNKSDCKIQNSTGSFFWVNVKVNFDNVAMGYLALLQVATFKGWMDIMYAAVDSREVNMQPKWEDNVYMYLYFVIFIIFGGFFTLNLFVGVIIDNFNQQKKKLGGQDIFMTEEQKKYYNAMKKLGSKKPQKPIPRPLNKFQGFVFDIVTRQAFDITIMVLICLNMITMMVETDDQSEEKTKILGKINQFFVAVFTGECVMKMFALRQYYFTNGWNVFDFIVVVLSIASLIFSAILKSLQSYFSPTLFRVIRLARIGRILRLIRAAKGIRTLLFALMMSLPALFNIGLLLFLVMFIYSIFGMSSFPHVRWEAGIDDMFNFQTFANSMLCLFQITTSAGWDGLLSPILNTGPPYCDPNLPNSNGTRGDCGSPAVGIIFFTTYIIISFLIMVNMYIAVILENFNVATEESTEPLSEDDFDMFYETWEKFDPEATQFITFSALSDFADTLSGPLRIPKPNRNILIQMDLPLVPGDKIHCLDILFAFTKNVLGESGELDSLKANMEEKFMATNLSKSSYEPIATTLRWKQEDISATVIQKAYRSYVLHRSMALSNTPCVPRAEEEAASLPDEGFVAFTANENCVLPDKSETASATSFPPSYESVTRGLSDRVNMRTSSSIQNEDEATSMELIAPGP
- Protocol Details: Inhibition of human Nav1.8 assessed as 10 Hz block using double pulse protocol by patch-clamp electrophysiology/cell based assay
Experimental Endpoint: pIC50
Quick note: pIC50 means taking -log10 of the concentration in moles per liter.

Measured on Sodium channel protein type 10 subunit alpha (Homo sapiens), O=C(NCc1noc(-c2c3ccccc3nn2CCn2ccnc2)n1)c1cccc(OC(F)(F)F)c1 has a documented pIC50 of 5.25

----------
- Assayed System: Sodium channel protein type 1 subunit alpha (Homo sapiens, UniProt P35498)
- Protocol Details: Inhibition of human Nav1.1 assessed as tonic block using double pulse protocol by patch-clamp electrophysiology/cell based assay
Experimental Endpoint: IC50

chem_smiles=O=C(NCc1noc(-c2c3ccccc3nn2CCn2ccnc2)n1)c1cccc(OC(F)(F)F)c1 assayed_system="Sodium channel protein type 1 subunit alpha (Homo sapiens, UniProt P35498)" experimental_endpoint=IC50 obs_value="15.3 µM"

Would you kindly look at the next entry?
Memo: O=C(NCc1noc(-c2nn(CCn3ccnc3)c3ccccc23)n1)c1ccccc1 , reported IC50: > 100 µM
